Assay: in vitro
Details: rat, gh3-tre-luc cells, AC50 (uM) modified / 1000, Tox21_110001=Tox21_111470; viability, 1 nM T3 present, 24 h
Readout label: CC50 at 24 h

Supply CC50 at 24 h value. Item: NC(=O)C[S+]([O-])C(c1ccccc1)c1ccccc1 (stereo not shown)
> 50 µM

----------
Assay: in vitro
Details: rat, gh3-tre-luc cells, AC50 (uM) modified / 1000, Tox21_110001=Tox21_302242; viability, 1 nM T3 present, 24 h
Readout label: CC50 at 24 h

Please report the measured CC50 at 24 h for CCCCCCCCP(=O)(O)O [Octylphosphonic acid]
> 90 µM
